Known inhibition at 1000 µM of a selection of molecules
assay_target: human TNFα (Homo sapiens, UniProt P01375)
Construct: purchased Biosource, Camarillo, Calif
Sequence (P01375 77-233 limits assumed): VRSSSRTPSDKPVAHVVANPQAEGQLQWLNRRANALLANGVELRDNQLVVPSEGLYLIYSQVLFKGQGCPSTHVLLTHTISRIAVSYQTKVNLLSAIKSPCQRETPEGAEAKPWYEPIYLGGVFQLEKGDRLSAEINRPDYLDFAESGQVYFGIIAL
experiment: p55 Receptor/IgG Fusion Protein Binding Assay (inhibition of TNFα capture by p55-Ig coated plate)
condition_summary: peptide 1 mM; TNFα 25 ng/ml; read-out: inhibition of binding of TNFα to p55TNFr-IgG chimeric construct
Where a SMILES comes first, the peptide text is derived from it.
Write the answer as a number in %, unit excluded.

Solved cases below.
{"molecule": "CC(C)C[C@H](NC(=O)[C@H](Cc1c[nH]cn1)NC(=O)[C@@H](NC(=O)[C@H](C)NC(=O)CN)C(C)C)C(=O)N1CCC[C@H]1C(=O)N[C@@H](CCC(N)=O)C(=O)N1CCC[C@H]1C(=O)N[C@H](C(=O)N[C@@H](CO)C(=O)N[C@H](C(=O)N[C@@H](CCCNC(=N)N)C(=O)N[C@@H](CO)C(=O)N[C@@H](CCC(N)=O)C(=O)N[C@@H](Cc1c[nH]cn1)C(N)=O)[C@@H](C)O)C(C)C [SEQ ID NO:55] (H-GAVHLPQPVSTRSQH-NH2)", "result_units": "%", "inhibition at 1000 µM": 60}
{"molecule": "CC[C@H](C)[C@H](NC(=O)[C@H](CCC(N)=O)NC(=O)[C@@H]1CCCN1C(=O)[C@H](CC(C)C)NC(=O)[C@H](C)NC(=O)[C@H](CC(C)C)NC(=O)[C@H](CCCCN)NC(=O)[C@@H](NC(=O)[C@H](C)NC(=O)[C@H](CCC(=O)O)NC(=O)[C@H](CC(C)C)NC(=O)[C@@H](N)CO)[C@@H](C)O)C(=O)N[C@@H](CCC(=O)O)C(=O)N[C@@H](CC(N)=O)C(=O)N[C@H](C(N)=O)C(C)C [SEQ ID NO:21] (H-SLEATKLALPQIENV-NH2)", "result_units": "%", "inhibition at 1000 µM": 50}
{"molecule": "CC(=O)N[C@@H](C)C(=O)N[C@@H](Cc1ccccc1)C(=O)N[C@@H](CC(N)=O)C(=O)N[C@@H](C)C(=O)N[C@@H](CO)C(=O)N[C@@H](CC(C)C)C(=O)N[C@@H](C)C(=O)N[C@@H](CC(C)C)C(=O)N[C@@H](CC(N)=O)C(=O)NCC(=O)N[C@H](C(=O)N[C@H](C(=O)N[C@@H](Cc1c[nH]cn1)C(=O)N[C@@H](CC(C)C)C(=O)N[C@@H](CO)C(N)=O)C(C)C)[C@@H](C)O [SEQ ID NO:13] (Ac-AFNASLALNGTVHLS-NH2)", "result_units": "%", "inhibition at 1000 µM": 34}
{"molecule": "CC(C)[C@H](NC(=O)[C@@H](NC(=O)[C@@H](N)CC(=O)O)[C@@H](C)O)C(=O)N[C@@H](C)C(=O)NCC(=O)N[C@@H](C)C(=O)N[C@@H](CCCNC(=N)N)C(=O)N[C@@H](CCCCN)C(=O)N[C@@H](CC(N)=O)C(=O)N[C@@H](CCC(N)=O)C(=O)N[C@@H](Cc1ccc(O)cc1)C(=O)N[C@@H](CCCNC(=N)N)C(=O)N[C@@H](Cc1c[nH]cn1)C(=O)N[C@@H](Cc1ccc(O)cc1)C(=O)N[C@@H](Cc1c[nH]c2ccccc12)C(N)=O [SEQ ID NO:9] (H-DTVAGARKNQYRHYW-NH2)", "result_units": "%", "inhibition at 1000 µM": 30}
{"molecule": "CSCC[C@H](NC(=O)[C@H](CO)NC(=O)[C@H](CCCNC(=N)N)NC(=O)[C@@H](NC(=O)[C@@H]1CCCN1C(=O)[C@H](CO)NC(=O)[C@@H](NC(=O)[C@H](CO)NC(=O)[C@@H](NC(=O)[C@H](C)N)[C@@H](C)O)[C@@H](C)O)[C@@H](C)O)C(=O)N[C@@H](C)C(=O)N1CCC[C@H]1C(=O)NCC(=O)N[C@@H](C)C(=O)N[C@H](C(N)=O)C(C)C [SEQ ID NO:54] (H-ATSTSPTRSMAPGAV-NH2)", "result_units": "%", "inhibition at 1000 µM": 52}
{"molecule": "CC(C)C[C@H](NC(=O)[C@H](Cc1ccccc1)NC(=O)[C@H](CO)NC(=O)[C@@H](NC(=O)[C@H](CO)NC(=O)[C@@H]1CCCN1C(=O)[C@H](C)NC(=O)[C@@H](NC(=O)[C@H](CO)NC(=O)[C@@H]1CCCN1C(=O)[C@H](CCC(=O)O)NC(=O)[C@@H]1CCCN1C(=O)[C@@H](N)[C@@H](C)O)[C@@H](C)O)[C@@H](C)O)C(=O)N[C@@H](CC(C)C)C(=O)N1CCC[C@H]1C(N)=O [SEQ ID NO:60] (H-TPEPSTAPSTSFLLP-NH2)", "result_units": "%", "inhibition at 1000 µM": 73}
{"molecule": "CC(C)C[C@H](NC(=O)[C@H](Cc1ccccc1)NC(=O)[C@H](Cc1ccccc1)NC(=O)CNC(=O)[C@H](C)NC(=O)[C@H](Cc1c[nH]cn1)NC(=O)[C@H](C)NC(=O)[C@@H](NC(=O)[C@H](C)NC(=O)[C@@H](NC(=O)[C@@H](NC(=O)[C@H](CC(N)=O)NC(=O)[C@H](CCC(N)=O)NC(=O)[C@@H](N)CCCCN)[C@@H](C)O)C(C)C)[C@@H](C)O)C(=O)N[C@@H](CCCNC(=N)N)C(N)=O [SEQ ID NO:16] (H-KQNTVATAHAGFFLR-NH2)", "result_units": "%", "inhibition at 1000 µM": 48}
{"molecule": "CSCC[C@H](NC(=O)[C@@H]1CCCN1C(=O)[C@H](CC(C)C)NC(=O)[C@H](CC(C)C)NC(=O)[C@H](Cc1ccccc1)NC(=O)[C@H](CO)NC(=O)[C@@H](NC(=O)[C@H](CO)NC(=O)[C@@H]1CCCN1C(=O)[C@H](C)N)[C@@H](C)O)C(=O)NCC(=O)N1CCC[C@H]1C(=O)N[C@@H](CO)C(=O)N1CCC[C@H]1C(=O)N1CCC[C@H]1C(N)=O [SEQ ID NO:62] (H-APSTSFLLPMGPSPP-NH2)", "result_units": "%", "inhibition at 1000 µM": 62}

Then there is this molecule:
Form field inhibition at 1000 µM, entry CC[C@H](C)[C@H](NC(=O)[C@H](CCC(N)=O)NC(=O)[C@@H]1CCCN1C(=O)[C@H](CC(C)C)NC(=O)[C@H](C)NC(=O)[C@@H](N)CC(C)C)C(=O)N[C@@H](CCC(=O)O)C(=O)N[C@@H](CC(N)=O)C(=O)N[C@H](C(=O)N[C@@H](CCCCN)C(=O)NCC(=O)N[C@H](C(=O)N[C@@H](CCC(=O)O)C(=O)N[C@@H](CC(=O)O)C(=O)N[C@@H](CO)C(N)=O)[C@@H](C)O)C(C)C [SEQ ID NO:22] (H-LALPQIENVKGTEDS-NH2) : 34
